- measurement.target: equine FcRn (large alpha subunit p51) / equine beta-2-microglobulin complex, biotinylated (equine) (UniProt P30441)
- procedure.summary: SPR (Biacore), pH 6
quantity.kind: Kd (nM)
Give the value in nM but do not write nM after it.

equine IgG1 T286H (antibody, part only; not given: variable domains, not shown: another chain or arm of the molecule) constant: ASTTAPKVFALAPGCGTTSDSTVALGCLVSGYFPEPVKVSWNSGSLTSGVHTFPSVLQSSGFYSLSSMVTVPASTWTSETYICNVVHAASNFKVDKRIEPIPDNHQKVCDMSKCPKCPAPELLGGPSVFIFPPNPKDTLMITRTPEVTCVVVDVSQENPDVKFNWYMDGVEVRHATTRPKEEQFNSTYRVVSVLRIQHQDWLSGKEFKCKVNNQALPQPIERTITKTKGRSQEPQVYVLAPHPDELSKSKVSVTCLVKDFYPPEINIEWQSNGQPELETKYSTTQAQQDSDGSYFLYSKLSVDRNRWQQGTTFTCGVMHEALHNHYTQKNVSKNPGK = 22.4

Lab note: next binder to report on.
Lab book: Kd of equine IgG4 D312N (antibody, part only; not given: variable domains, not shown: another chain or arm of the molecule) constant: ASTTAPKVFPLASHSAATSGSTVALGCLVSSYFPEPVTVSWNSGALTSGVHTFPSVLQSSGLYSLSSMVTVPASSLKSQTYICNVAHPASSTKVDKKIVIKECNGGCPAECLQVGPSVFIFPPKPKDVLMISRTPTVTCVVVDVGHDFPDVQFNWYVDGVETHTATTEPKQEQFNSTYRVVSVLPIQHKNWLSGKEFKCKVNNKALPAPVERTISKPTGQPREPQVYVLAPHRDELSKNKVSVTCLVKDFYPTDIDIEWKSNGQPEPETKYSTTPAQLDSDGSYFLYSKLTVETNRWQQGTTFTCAVMHEALHNHYTEKSVSKSPGK noted as 16.1
